test system: BT-474; assay: drug sensitivity score (DSS), CellTiter-Glo (DSS (AUC-based score)); higher = stronger drug effect (viability inhibition or cytotoxicity); extreme values may be limits of the assay; settings: incubation time: 72 h
assay.metric: drug sensitivity score
Keep the answer to the number alone.

Some compounds with recorded drug sensitivity score:
CS(=O)(=O)c1ccc(C2=C(c3ccccc3)C(=O)OC2)cc1 [Rofecoxib] | 0
Cc1ccc(-n2nc(C(C)(C)C)cc2NC(=O)Nc2ccc(OCCN3CCOCC3)c3ccccc23)cc1 [Doramapimod] | 1.64
N[C@@H](CSC(c1ccccc1)(c1ccccc1)c1ccccc1)C(=O)O [S-trityl-L-cysteine] | 0
C[C@@H](Oc1cc(-c2cnn(C3CCNCC3)c2)cnc1N)c1c(Cl)ccc(F)c1Cl [Crizotinib] | 0

Look up drug sensitivity score with BT-474 for this compound: Cn1c(CCCC(=O)O)nc2cc(N(CCCl)CCCl)ccc21 [Bendamustine] 0

Look up drug sensitivity score with BT-474 for this compound: O=C(CCCCCCC(=O)Nc1ccc([C@H]2O[C@@H](CSc3nc(-c4ccccc4)c(-c4ccccc4)o3)C[C@@H](c3ccc(CO)cc3)O2)cc1)NO [Tubacin] 4.89

Look up drug sensitivity score with BT-474 for this compound: N.N.[Cl][Pt][Cl] [Cisplatin] 0

Look up drug sensitivity score with BT-474 for this compound: Cc1ccc(C(=O)N(CCCN)[C@@H](c2oc3cc(Cl)ccc3c(=O)c2Cc2ccccc2)C(C)C)cc1 0

Look up drug sensitivity score with BT-474 for this compound: CC1(C)NC(=O)N(c2ccc([N+](=O)[O-])c(C(F)(F)F)c2)C1=O [Nilutamide] 0

---

test system: CAL-85-1; experiment: drug sensitivity score (DSS), CellTiter-Blue viability (DSS (AUC-based score)); higher = stronger viability inhibition; extreme values may be limits of the assay; conditions: incubation time: 72 h
Measured drug sensitivity score by item

O=C1CCC(N2C(=O)c3ccccc3C2=O)C(=O)N1 (centres undefined) [Thalidomide] | 0
Clc1ccc(Nc2nnc(Cc3ccncc3)c3ccccc23)cc1 [Vatalanib] | 0
CN(N=O)C(=O)N[C@@H](C=O)[C@@H](O)[C@H](O)[C@H](O)CO [Streptozocin] | 0
CC(C)Cn1cnc2c(N)nc3ccccc3c21 [Imiquimod] | 0
CN(C)/N=N/c1[nH]cnc1C(N)=O [Dacarbazine] | 0

Look up drug sensitivity score with CAL-85-1 for this compound: CNCc1ccc(-c2[nH]c3cc(F)cc4c3c2CCNC4=O)cc1 [Rucaparib] 0

Look up drug sensitivity score with CAL-85-1 for this compound: CCN(CCCOc1ccc2c(Nc3cc(CC(=O)Nc4cccc(F)c4)[nH]n3)ncnc2c1)CCOP(=O)(O)O [Barasertib] 4.42

Look up drug sensitivity score with CAL-85-1 for this compound: NC(=O)Nc1cc(-c2cccc(F)c2)sc1C(=O)N[C@H]1CCCNC1 [AZD 7762] 6.01

Look up drug sensitivity score with CAL-85-1 for this compound: Cn1c(CCCC(=O)O)nc2cc(N(CCCl)CCCl)ccc21 [Bendamustine] 0

---

Measured drug sensitivity score by item
system: HDQ-P1; test: drug sensitivity score (DSS), CellTiter-Glo (DSS (AUC-based score)); higher = stronger drug effect (viability inhibition or cytotoxicity); extreme values may be limits of the assay; details: incubation time: 72 h

Some compounds with recorded drug sensitivity score:
Cn1c(Nc2ccc(C(F)(F)F)cc2)nc2cc(Oc3ccnc(-c4ncc(C(F)(F)F)[nH]4)c3)ccc21 | 5.82
Cc1ccc(-n2nc(C(C)(C)C)cc2NC(=O)Nc2ccc(OCCN3CCOCC3)c3ccccc23)cc1 | 1.32
O=C(O)c1ccc(-c2c[nH]c3ncc(-c4ccccc4)cc23)cc1C1CCCC1 | 0

Return reported drug sensitivity score; argument: CCCCCCCCCCCCCCCCCCOP(=O)([O-])OC1CC[N+](C)(C)CC1 0

Return reported drug sensitivity score; argument: C[C@@H](Oc1cc(-c2cnn(C3CCNCC3)c2)cnc1N)c1c(Cl)ccc(F)c1Cl 0

Return reported drug sensitivity score; argument: Cc1ccc(C(=O)N(CCCN)[C@@H](c2oc3cc(Cl)ccc3c(=O)c2Cc2ccccc2)C(C)C)cc1 0
